System: Pseudomonas BRK 12-4-4
test.details: In vitro minimal inhibitory concentration, Pseudomonas BRK 12-4-4
Assay type: cell-based
recorded.conditions: BRK1244
Here, each record is paired with measured MIC data.

{"columns": ["compound", "MIC"],
 "data": [
  ["CC(=O)NC(C)(C)C(=O)Nc1ccc(-c2ccc(C(=O)N[C@@H](C(=O)NC3C(=O)N4C(C(=O)O)=C(COC(C)=O)CSC34)c3ccccc3)c(=O)[nH]2)cc1 (some centres unmarked)", "6.3 µg/mL"],
  ["CC(=O)N[C@@H](CCC(N)=O)C(=O)Nc1ccc(-c2ccc(C(=O)N[C@@H](C(=O)NC3C(=O)N4C(C(=O)O)=C(CSc5nnnn5C)CSC34)c3ccccc3)c(=O)[nH]2)cc1 (some centres unmarked)", "6.3 µg/mL"],
  ["CC(=O)N1CCC[C@H]1C(=O)Nc1ccc(-c2ccc(C(=O)N[C@@H](C(=O)NC3C(=O)N4C(C(=O)O)=C(CSc5nnnn5C)CSC34)c3ccccc3)c(=O)[nH]2)cc1 (some centres unmarked)", "25 µg/mL"],
  ["CC(=O)N[C@H](CC(N)=O)C(=O)Nc1ccc(-c2ccc(C(=O)N[C@@H](C(=O)NC3C(=O)N4C(C(=O)O)=C(COC(C)=O)CSC34)c3ccccc3)c(=O)[nH]2)cc1 (some centres unmarked)", "12.5 µg/mL"],
  ["CC(=O)NCCCCC(NC(C)=O)C(=O)Nc1ccc(-c2ccc(C(=O)N[C@@H](C(=O)NC3C(=O)N4C(C(=O)O)=C(COC(C)=O)CSC34)c3ccccc3)c(=O)[nH]2)cc1 (mixture of isomers)", "12.5 µg/mL"]
]}

* * *

Test system: Klebs. Pneum. MGH 2
Please respond with yes when measured MIC is strictly beneath 6 µg/mL, and with no in all other cases.

{"columns": ["compound", "class.assignment"],
 "data": [
  ["CC(=O)N[C@H](C)C(=O)Nc1cccc(-c2ccc(C(=O)N[C@@H](C(=O)NC3C(=O)N4C(C(=O)O)=C(COC(C)=O)CSC34)c3ccccc3)c(=O)[nH]2)c1 (stereo partly shown)", "no"],
  ["CC(=O)N[C@H](C)C(=O)Nc1ccc(-c2ccc(C(=O)N[C@@H](C(=O)NC3C(=O)N4C(C(=O)O)=C(COC(C)=O)CSC34)c3ccccc3)c(=O)[nH]2)cc1 (stereo partly shown)", "no"],
  ["CC(=O)OCC1=C(C(=O)O)N2C(=O)C(NC(=O)[C@H](NC(=O)c3ccc(-c4ccc(NC(=O)[C@@H]5CCC(=O)N5)cc4)[nH]c3=O)c3ccccc3)C2SC1 (stereo partly shown)", "no"],
  ["CC(=O)NC(C)C(=O)Nc1ccc(-c2ccc(C(=O)N[C@@H](C(=O)NC3C(=O)N4C(C(=O)O)=C(CSc5nnnn5C)CSC34)c3ccccc3)c(=O)[nH]2)cc1 (mixture of isomers)", "yes"],
  ["CC(=O)N[C@H](C)C(=O)Nc1ccc(-c2ccc(C(=O)N[C@@H](C(=O)NC3C(=O)N4C(C(=O)O)=C(CSc5nnnn5C)CSC34)c3ccccc3)c(=O)[nH]2)cc1 (stereo partly shown)", "yes"],
  ["CC(=O)N[C@@H](C)C(=O)Nc1ccc(-c2ccc(C(=O)N[C@@H](C(=O)NC3C(=O)N4C(C(=O)O)=C(CSc5nnc(C)s5)CSC34)c3ccccc3)c(=O)[nH]2)cc1 (stereo partly shown)", "yes"],
  ["CC(=O)N[C@@H](C)C(=O)Nc1ccc(-c2ccc(C(=O)N[C@@H](C(=O)NC3C(=O)N4C(C(=O)O)=C(COC(C)=O)CSC34)c3ccccc3)c(=O)[nH]2)cc1 (stereo partly shown)", "no"],
  ["CC(=O)N[C@H](CC(N)=O)C(=O)Nc1ccc(-c2ccc(C(=O)N[C@@H](C(=O)NC3C(=O)N4C(C(=O)O)=C(COC(C)=O)CSC34)c3ccccc3)c(=O)[nH]2)cc1 (stereo partly shown)", "no"],
  ["CC(=O)NCCCCC(NC(C)=O)C(=O)Nc1ccc(-c2ccc(C(=O)N[C@@H](C(=O)NC3C(=O)N4C(C(=O)O)=C(COC(C)=O)CSC34)c3ccccc3)c(=O)[nH]2)cc1 (mixture of isomers)", "no"],
  ["CC(=O)NCCCC[C@H](NC(C)=O)C(=O)Nc1ccc(-c2ccc(C(=O)N[C@@H](C(=O)NC3C(=O)N4C(C(=O)O)=C(COC(C)=O)CSC34)c3ccccc3)c(=O)[nH]2)cc1 (stereo partly shown)", "no"]
]}
